Target protein (sequence): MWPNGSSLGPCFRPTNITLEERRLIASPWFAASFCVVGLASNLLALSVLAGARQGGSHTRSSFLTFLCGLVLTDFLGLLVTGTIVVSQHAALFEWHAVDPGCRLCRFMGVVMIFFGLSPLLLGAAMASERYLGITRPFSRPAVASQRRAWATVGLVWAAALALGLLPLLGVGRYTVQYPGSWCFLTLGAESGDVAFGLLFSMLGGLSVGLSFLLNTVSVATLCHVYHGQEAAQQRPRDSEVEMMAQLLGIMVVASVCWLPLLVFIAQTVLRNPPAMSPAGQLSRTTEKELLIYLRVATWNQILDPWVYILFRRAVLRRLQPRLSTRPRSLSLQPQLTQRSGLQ
measurement kind: pKd
Formally, pKd is defined as -log10 of the concentration c, with c in mol/L.

Report pKd for "O=C(O)CCc1ccccc1C[C@H]1CCC[C@@H]1c1nc(C(=O)NCc2ccc(Cl)cc2)co1" please.
8.48
